- procedure_text: Cardiac, liver and lung tissue DEA and AMIO levels in dogs with atrial fibrillation and structural atrial remodelling
- cond: both, Beagle, dog, left atrium, oral, 50 mg/kg/day, Left atrium AMIO level, Mean, dogs with AF, 4-week oral AMIO 50 mg/kg/day; n=3
readout_name: concentration at 4 weeks (ng/g)
Return type: number; implicit unit ng/g.

Give the measured concentration at 4 weeks of CCCCc1oc2ccccc2c1C(=O)c1cc(I)c(OCCN(CC)CC)c(I)c1 .
35200

* * *

- procedure_text: Cardiac, liver and lung tissue DEA and AMIO levels in dogs with atrial fibrillation and structural atrial remodelling
- cond: both, Beagle, dog, left ventricle, oral, 50 mg/kg/day, Left ventricle AMIO level, Mean, dogs with AF, 4-week oral AMIO 50 mg/kg/day; n=3
readout_name: concentration at 4 weeks
Give the value; after it, write the unit.

Give the measured concentration at 4 weeks of CCCCc1oc2ccccc2c1C(=O)c1cc(I)c(OCCN(CC)CC)c(I)c1 .
34400 ng/g
